Below is a list of entries, each paired with its recorded residual activity value.
experimental target: Solute carrier organic anion transporter family member 1B1 (Homo sapiens, UniProt Q9Y6L6)
Sequence (Q9Y6L6 whole entry): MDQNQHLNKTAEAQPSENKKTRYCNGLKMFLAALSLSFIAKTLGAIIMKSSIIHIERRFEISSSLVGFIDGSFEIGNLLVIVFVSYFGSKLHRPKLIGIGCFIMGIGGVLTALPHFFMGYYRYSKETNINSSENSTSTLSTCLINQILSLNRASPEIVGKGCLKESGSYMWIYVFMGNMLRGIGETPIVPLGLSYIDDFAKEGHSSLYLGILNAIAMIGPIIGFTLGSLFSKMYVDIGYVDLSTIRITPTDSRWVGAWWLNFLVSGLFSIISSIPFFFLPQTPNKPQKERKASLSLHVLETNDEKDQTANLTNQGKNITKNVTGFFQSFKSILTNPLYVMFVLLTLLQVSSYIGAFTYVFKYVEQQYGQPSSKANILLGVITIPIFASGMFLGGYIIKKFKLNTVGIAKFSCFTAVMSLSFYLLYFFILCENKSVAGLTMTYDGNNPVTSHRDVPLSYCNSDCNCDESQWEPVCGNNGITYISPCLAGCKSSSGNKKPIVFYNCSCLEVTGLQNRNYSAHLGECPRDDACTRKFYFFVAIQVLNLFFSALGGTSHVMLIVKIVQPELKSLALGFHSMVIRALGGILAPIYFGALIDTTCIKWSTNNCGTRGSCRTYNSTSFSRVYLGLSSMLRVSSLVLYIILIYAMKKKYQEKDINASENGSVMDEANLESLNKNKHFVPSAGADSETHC
cond: chinese hamster, cho, 10 µM
Report the value in % with no unit label.

Below: 3 compounds and their reported residual activity.
• O=C(O)CN(CCN(CC(=O)O)CC(=O)O)CC(=O)O [EDETIC ACID] = 81.77
• O=c1[nH]c(=O)n([C@H]2C[C@H](O)[C@@H](CO)O2)cc1C(F)(F)F [TRIFLURIDINE] = 64.99
• CCCC(=O)O[C@]1(C(=O)CO)CC[C@H]2[C@@H]3CCC4=CC(=O)CC[C@]4(C)[C@H]3[C@@H](O)C[C@@]21C [HYDROCORTISONE BUTYRATE] = 100.3

Continue with the compound presented below.
residual activity measured on O=c1c(O)c(-c2ccc(O)c(O)c2)oc2cc(O)ccc12 [FISETIN] = 56.32
